Just for reference, patent US20190062305A1 is where these values come from.

targetUnderTest: 5-HT2C receptor (Homo sapiens, UniProt P28335)
Construct: host or cells: U2OS
Sequence (P28335 33-458): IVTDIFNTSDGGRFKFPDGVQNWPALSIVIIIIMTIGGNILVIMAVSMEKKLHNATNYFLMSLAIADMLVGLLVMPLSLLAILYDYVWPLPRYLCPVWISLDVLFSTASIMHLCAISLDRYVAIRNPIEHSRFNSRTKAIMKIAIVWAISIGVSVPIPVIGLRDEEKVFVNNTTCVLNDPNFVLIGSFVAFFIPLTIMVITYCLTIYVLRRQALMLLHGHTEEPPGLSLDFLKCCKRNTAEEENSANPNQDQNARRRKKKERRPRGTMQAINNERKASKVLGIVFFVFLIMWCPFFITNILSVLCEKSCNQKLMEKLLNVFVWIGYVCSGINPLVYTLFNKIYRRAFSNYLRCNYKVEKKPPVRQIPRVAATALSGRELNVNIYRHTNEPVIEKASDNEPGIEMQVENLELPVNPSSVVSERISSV
Sequence (P32121 whole entry partner): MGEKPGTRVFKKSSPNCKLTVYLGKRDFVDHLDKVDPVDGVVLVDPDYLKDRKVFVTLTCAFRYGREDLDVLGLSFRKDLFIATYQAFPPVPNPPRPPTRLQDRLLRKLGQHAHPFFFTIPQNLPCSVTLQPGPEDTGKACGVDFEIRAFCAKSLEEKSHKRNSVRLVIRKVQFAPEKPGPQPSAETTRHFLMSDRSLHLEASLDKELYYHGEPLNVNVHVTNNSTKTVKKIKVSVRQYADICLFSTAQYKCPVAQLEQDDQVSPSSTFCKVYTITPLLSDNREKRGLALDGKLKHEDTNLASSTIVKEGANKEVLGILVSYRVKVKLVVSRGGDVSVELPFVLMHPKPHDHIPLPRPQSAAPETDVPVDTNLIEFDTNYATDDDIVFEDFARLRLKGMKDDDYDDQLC
assayProtocol: Human 5-HT2C functional assay (beta-arrestin2 recruitment, U2OS_HTR2C_β-Arrestin cells)
Assay type: cell-based
testConditions: relative efficacy vs response to 10 μM 5-HT or maximal 5-HT effect (100%)
Structures can show the parent of a compound that is named as a salt.
observedProperty: Emax

                                   compound  observedproperty  datavalue
0  COc1nc(OC2CCC(C(F)(F)F)CC2)c(F)cc1CNC(=O)[C@@H]1C[C@@H](C)CN1 (some centres unmarked) [Example 60, Hydrochloride]              Emax  50 to 70%
1  COc1nc(NCCCc2ccccc2)c(F)cc1CNC(=O)[C@@H]1CCCN1 [Example 185]              Emax      > 70%
2  COc1nc(OC2CCC(C(F)F)CC2)c(F)cc1CNC(=O)[C@@H]1CCCN1 (some centres unmarked) [Example 66, hydrochloride]              Emax      > 70%
3  COc1nc(OC2CCC(F)(F)CC2)c(F)cc1CN(C)C(=O)[C@@H]1CCCN1 [Example 114, Hydrochloride]              Emax      > 70%
4  COc1nc(OC[C@H]2CCC(F)(F)C2)c(F)cc1CNC(=O)[C@@H]1CCCN1 [Example 32]              Emax  50 to 70%
5  COc1nc(O[C@H]2C[C@@H](C(F)(F)F)C2)c(F)cc1CN(C)C(=O)[C@@H]1CCCN1 [Example 121, Hydrochloride]              Emax  50 to 70%
6  COc1nc(OCC(F)(F)C(F)(F)F)c(F)cc1CNC(=O)[C@@H]1CCCN1 [Example 18]              Emax      > 70%
7  COc1nc(OC2CC(F)(F)C2)c(F)cc1CNC(=O)[C@@H]1C[C@@H](F)CN1 [Example 94, Hydrochloride]              Emax      > 70%
